B1: Tesmin, residues 368 to 403; numbered along this chain, Q9Y4I5 (parent)
chain: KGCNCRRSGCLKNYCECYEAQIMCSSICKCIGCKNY

Variants of: B1
Test: abundance fitness (aPCA) (normalised: wild type 0, dead -1); higher = more abundant; growth selection in yeast, the domain comes from the species named
Details: Homo sapiens
# abundance fitness per entry
Response field accepts a number only; no unit should be typed.

Please review the following examples before continuing.
Record Sequence: KGCNCRRSGCLKNYCECYEAQCMCSSICKCIGCKNY [I22C]
abundance fitness: -0.55

Record Sequence: KGCNCRRSGCLKNYCECYEAQIMCSSICKCSGCKNY [I31S]
abundance fitness: 0.147

Record Sequence: KGCNCRRSGCLKNYCECYQAQIMCSSICKCIGCKNY [E19Q]
abundance fitness: -0.131

Record Sequence: KGCNCRRSGCLKNYCECYEAQIMCSSICDCIGCKNY [K29D]
abundance fitness: 0.171

Record Sequence: KGCNCRRSGCLKNYAECYEAQIMCSSICKCIGCKNY [C15A]
abundance fitness: -0.394

Form field: reported abundance fitness of KGCNCRRSGCLKNYCECYEAQIMCSSICKCQGCKNY [I31Q]
0.114

Form field: reported abundance fitness of KGCNCRRSGCLKNYCECYEAQIMCSSICKKIGCKNY [C30K]
-0.249

Form field: reported abundance fitness of KGCNCRRSGCLKNYCECYEAQIMCSSICKCIDCKNY [G32D]
-0.454

Form field: reported abundance fitness of KGCNCRRSGCLKNYCECYEAQIMCSSICKCIGCKKY [N35K]
-0.44

Form field: reported abundance fitness of KGCKCRRSGCLKNYCECYEAQIMCSSICKCIGCKNY [N4K]
-0.314

Form field: reported abundance fitness of KGCNCRRSNCLKNYCECYEAQIMCSSICKCIGCKNY [G9N]
-0.248
